Source: PubChem BioAssay (EPA / NIEHS)

- assay-text: ATG_M_06_CIS: Attagene CIS-FACTORIAL HepG2 Assay for M06 Transcription Factor (Internal Marker) (AID 2282950)
- condition-summary: HepG2 Attagene CIS-FACTORIAL M06 internal marker reporter; actives raise or lower the signal
The source made the active and inactive calls. Rule for the calls: active = hit-call score of the fitted dose curve at least 0.9, where 1 is the maximum; inactive = score below 0.9.
Returns: one label drawn from t = active, f = inactive

Entry CCCCCCCCCCCCN(C)C : call = ? f

Follow-up item: ClCc1ccccc1Cl f

Follow-up item: C#CCO f

Follow-up item: O=C(O)COc1cc(Cl)c(Cl)cc1Cl f

Follow-up item: N#CCC#N f

Follow-up item: CC(F)(F)CC(F)(F)F f

Follow-up item: N#CS f

Follow-up item: C[C@]12CC[C@@H](O)C[C@@H]1CC[C@@H]1[C@@H]2CC[C@]2(C)C(=O)CC[C@@H]12 f

Follow-up item: CC1(C)[C@H](C(=O)O[C@H](C#N)c2cccc(Oc3ccccc3)c2)[C@@H]1/C=C(\Cl)C(F)(F)F f

Follow-up item: C=CCN=C=S f

Follow-up item: O=C1C=CC(=O)c2ccccc21 f

Follow-up item: Brc1ccc(Oc2c(Br)cc(Br)cc2Br)c(Br)c1 f

Follow-up item: C=CC(=O)NC(C)(C)CC(C)=O f

Follow-up item: CCOC(=O)CCN(SN(C)C(=O)Oc1cccc2c1OC(C)(C)C2)C(C)C f

Follow-up item: CCCCCCCCCCCCCCC(Br)C(=O)O (configuration not stated) t

Follow-up item: CCOC(=O)CC(=O)CCl f

Follow-up item: OC[C@@H](O)[C@H]1O[C@@H]2O[C@H](C(Cl)(Cl)Cl)O[C@@H]2[C@H]1O f

Follow-up item: COc1ccc([N+](=O)[O-])cc1O f

Follow-up item: CCCCCCCCCCCCCl f

Follow-up item: C=CCCl f

Follow-up item: COC(F)(C(F)(F)C(F)(F)F)C(F)(C(F)(F)F)C(F)(F)F (configuration not stated) f

Follow-up item: O=c1nc(O)n(Cl)c(=O)n1Cl f

Follow-up item: O=C(NC(=O)c1c(F)cccc1F)Nc1ccc(Cl)cc1 f

Follow-up item: CCC(C)(C#N)N=NC(C)(C#N)CC (configuration not stated) f

Follow-up item: O=S(=O)(F)C(F)(F)C(F)(F)C(F)(F)C(F)(F)F f

Follow-up item: O=S(=O)(C(Cl)(Cl)Cl)C(Cl)(Cl)Cl f

Follow-up item: CCCCCCCCCCCCc1cccc(S(=O)(=O)O)c1 f

Follow-up item: CC(c1ccccc1)(c1ccc(O)cc1)c1ccc(O)cc1 f

Follow-up item: NC(=O)CCl f

Follow-up item: CCOP(=S)(OCC)O/N=C(\C#N)c1ccccc1 f

Follow-up item: CCCCCCCCCCBr f

Follow-up item: C[CH2][Hg][S]c1ccccc1C(=O)O f
